- assay-notes: Thermal stability of CD58 variants by differential scanning fluorimetry (DSF)
- Type: physicochemical
readout-label: Tm by Differential Scanning Fluorimetry (DSF)
Show the value, then the unit it is measured in.

Which Tm by Differential Scanning Fluorimetry (DSF) value belongs to IgV V45C_M105C: CD58 IgV domain with V45 and M105 replaced by cysteines (stabilizing disulfide) (protein) SQQIYGVVYGNVTFHCPSNVPLKEVLWKKQKDKVAELENSEFRAFSSFKNRVYLDTVSGSLTIYNLTSSDEDEYECESPNITDTMKFFLYVLESGGGGSHHHHHHHH ?
48.5 °C
